These data points were gathered from PubChem BioAssay (NCI).

# Test name: NCI Yeast Anticancer Drug Screen. Data for the rad50 strain (AID 155);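 note: 0% = growth of vehicle-only cultures of the same strain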
# Experimental setup: S. cerevisiae rad50 strain growth inhibition; at 50.0 µM; stronger effect = higher value
About 79,000 compounds went through this panel and 15% of them were active in at least one assay; those are over-represented in the sample as a whole.
Assay metric: growth inhibition (%)
Give bare numbers, in %.

Previously resolved entries follow.
N#CC(c1ccccc1)c1cccc(C(=O)O)c1 (stereo unspecified)	-16.9
CN(C)Cc1cc(N=Nc2ccc(Cl)cc2)ccc1O	26.9
Nc1nc(Sc2ccc([N+](=O)[O-])c3nonc23)c2ncn(C3OC(CO)C(O)C3O)c2n1 (stereo unspecified)	-0.7
CS1(=O)=NC(=O)C(N2C(=O)c3ccccc3C2=O)CC1 (stereo unspecified)	0.6

I need growth inhibition for every entry listed below, if you could help.
1. O=C(O)CCCSc1ccc2ccccc2c1
2. O=C(Nc1ccc(I)cc1)c1ccc([N+](=O)[O-])cc1
3. OC1CCOc2ccccc21 (stereo unspecified)
4. CCCCCCCC/C=C/CCCCCCCCCCCC(=O)O
5. Cc1nn(CCO)c(N)c1C(N)=O
6. CC(=O)/C(C)=C\C=C(\C)C(C)=O

Reply |
[48.5, 2.3, -29.8, -7.6, 5.35, -7.2]

Okay, here is my list. What is growth inhibition for each of these?
1. N#CCCN1C(=O)C2(CCC#N)CCCCC2(O)N=C1c1ccccc1 (stereo unspecified)
2. O=C1CSC(c2ccccc2C(F)(F)F)N1c1nncs1 (stereo unspecified)

Reply |
1: -7.35; 2: 18.4

Provide each entry's growth inhibition from the list below.
1. CC1=CC[C@H]2C(C)=CC[C@@H](C(C)C)[C@@H]2C1
2. Cc1cc(=O)oc2cc(OCCCOc3ccc4c(C)cc(=O)oc4c3)ccc12

Reply |
1: 10.4; 2: 19.1

----------
# Test name: NCI Yeast Anticancer Drug Screen. Data for the mlh1 rad18 strain (AID 175)
# Experimental setup: S. cerevisiae mlh1 rad18 strain growth inhibition; at 50.0 µM; stronger effect = higher value
Compounds without any hit were thinned out: in the full panel of roughly 79,000, 15% have a hit.
Field: growth inhibition. Provide a value for each of the molecules that follow.
Numbers only, in %.

Consider the reported growth inhibition for these molecules:
O=C1c2ccccc2C(=O)N1CC(O)COc1cccc2ccccc12 (configuration not stated)	-14.8
CCOc1ccc(C(C)(CC)c2cc3c(cc2OC)OCO3)cc1 (configuration not stated)	3.85
NC(=O)NC(=O)c1ccco1	16

Provide reported growth inhibition for each item, in the same order as listed.
1. CCOC(=O)/C(C#N)=C/c1ccc([N+](=O)[O-])cc1
2. Cc1cccc(NC(=S)NC2CCCCC2)c1
3. Cc1nc(N)nc(-c2ccccc2)c1N=Nc1ccccc1Br
4. Cc1cc(=O)[nH]c(=O)[nH]1
5. CCCCCCCCN1N=C(C)CCC1=O
6. O=C(c1ccccc1)c1ccc2ccc(F)cc2c1C(=O)O
7. COC(=N)C(C)C
8. CO[C@@H]1O[C@H](C(=O)c2ccccc2)[C@H]2OC(C)(C)O[C@@H]12

Reply |
1. 8.4
2. 9.4
3. 11.8
4. -5.4
5. -8.55
6. -7.7
7. 22.6
8. 16.3

Hi! Can you tell me growth inhibition for each of these molecules?
1. COc1ccc2c(c1OC)Oc1c(OC)ccc3c1C(C2)N(C)C[C@@H]3O (some centres not stated)
2. O=C(O)/C=C(/CC(=O)O)c1ccc(O)cc1
3. O=C(Nc1ccccc1)Sc1ccc(Cl)cc1
4. O=C(CC(=O)c1ccc(Cl)cc1)c1ccc(Cl)cc1
5. CC(C)(C)C1(C#N)C(=O)N(c2ccc(Cl)cc2)C12c1ccccc1-c1ccccc12 (configuration not stated)
6. Nc1cc(Cl)ccc1N1C(=O)C=CC1=O

Reply |
[-5.5, -14.3, 2.85, 4.45, 20.4, 18.6]

The following molecules each have a reported value; give each one's growth inhibition.
1. Cc1ncc(-c2ccccc2)o1
2. O=C1Nc2ccccc2CS1
3. O=c1c2ccccc2c2cc3nc4ccc([N+](=O)[O-])cc4c(=O)n3c3cccc1c23
4. Cn1nc(-c2cccc(-c3nn(C)c(=NCCO)s3)n2)sc1=NCCO
5. CC(CCCSC(=N)N)SC(=N)N (configuration not stated)
6. Cc1ccc(-c2nc3ccccc3cc2N)cc1

Reply |
[-15.7, -1.05, -10.4, -40.6, 12.6, -4.4]

----------
Assign growth inhibition to each entry below.
# Test name: NCI Yeast Anticancer Drug Screen. Data for the rad50 strain (AID 155);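 note: 0% = growth of vehicle-only cultures of the same strain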
# Experimental setup: S. cerevisiae rad50 strain growth inhibition; at 50.0 µM; stronger effect = higher value
About 79,000 compounds went through this panel and 15% of them were active in at least one assay; those are over-represented in the sample as a whole.
Answers are plain numbers, in %.

Record growth inhibition per entry; entries follow.
1. CS(=O)(=O)C(CCC(=O)c1ccc2ccccc2c1)C(=O)c1ccccc1 (stereo not drawn)
2. CCCCCCCI
3. O=C(O)c1cc(=O)[nH]c(SCc2ccc(Cl)cc2Cl)n1
4. COc1ccc(C(C)(O)c2cc3ccccc3n2S(=O)(=O)c2ccccc2)cc1 (stereo not drawn)
5. CC(=O)OCC1(C)CCC(C)CO1 (stereo not drawn)

Reply |
3.1
-8.9
-14.4
-8.95
-21.4

Batch request: growth inhibition per item, same order as input.
1. C=C(C)CC1CC(=O)OC1=O (stereo not drawn)
2. Oc1cc(O)c(Cl)cc1Cl
3. O=C(NC(=S)Nc1ccc(S(=O)(=O)c2ccc(NC(=S)NC(=O)c3ccccc3)cc2)cc1)c1ccccc1

Reply |
[26, 15.4, -28.5]

----------
# Test name: NCI Yeast Anticancer Drug Screen. Data for the bub3 strain (AID 167)
# Experimental setup: S. cerevisiae bub3 mutant strain, at 50.0 µM
About 79,000 compounds went through this panel and 15% of them were active in at least one assay; those are over-represented in the sample as a whole. The source made the active and inactive calls. Cut-off read from the data, not from the text of the source: active = growth inhibition above about 70%; inactive = the rest.
Use one of these outcomes when replying: t (active), f (inactive)

Solved entries:
Cc1ncc([N+](=O)[O-])n1CCNS(=O)(=O)CCCn1ccnc1[N+](=O)[O-]	f
CC1CSC(C)(C)C(=O)N1 (centres undefined)	f
CC1(C)CSC(C)(C)C(=O)N1	f
CC1=NN(C(=O)CC(=O)Nc2ccccc2C)C(=O)C1N=Nc1ccc(S(=O)(=O)c2ccc(N=NC3C(=O)N(C(=O)CC(=O)Nc4ccccc4C)N=C3C)cc2)cc1 (centres undefined)	f

Now take the following molecule into account.
Ask | So what was the verdict on Cc1ccc2oc(=O)c3c(O)c4cccc(OC5OC(C)C6O[C@@H](c7ccccc7)OC6C5OC5OC(C)C(O)C(O)C5O)c4c4oc(=O)c1c2c34 (some centres undefined) in this test?
Reply | t

----------
# Test name: NCI Yeast Anticancer Drug Screen. Data for the cln2 rad14 strain (AID 165);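 note: 0% = growth equal to vehicle treated cultures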
# Experimental setup: S. cerevisiae cln2 rad14 strain, at 50.0 µM, stronger effect = higher value
Compounds without any hit were thinned out: in the full panel of roughly 79,000, 15% have a hit.
Assign growth inhibition to each entry below.
Numbers only, in %.

# example entries with known answers
CC(C)(C)/C(=N\O)c1ccccc1	-8.05
CN(C)c1nc(N(C)C)nc(N(C)C=O)n1	-2.85

Items follow; give growth inhibition for each.
1. N#Cc1nc(C2CCC2)oc1N
2. N#Cc1ccc(OCCCCCOc2ccc(C#N)cc2)cc1
3. Cc1ccc(-c2oc3ccccc3c(=O)c2O)cc1
4. O=C1OC(=O)C(Cl)=C1Cl

Reply |
18.6
-43.1
-5.3
10.7

----------
# Test name: NCI Yeast Anticancer Drug Screen. Data for the mec2-1 strain (AID 157)
# Experimental setup: S. cerevisiae mec2-1 strain, at 50.0 µM, stronger effect = higher value
The panel holds about 79,000 compounds, 15% with a hit somewhere; the sample as a whole holds those more often.
Assay metric: growth inhibition (%)
Answers are plain numbers, in %.

Before answering, review these 5 worked examples.
Cc1cc(N(CCC#N)CCC#N)ccc1/C=C/C(=O)Nc1cccc(Cl)c1	4.6
C=CCC1=C(C)C(O)CC1=O (stereo not given)	-13.7
N#CCCN1C(=O)C2(CCC#N)CCCCC2(O)N=C1c1ccccc1 (stereo not given)	6.15
Cn1cnc2cc3c(cc2c1=O)nc1n3CCCC1	-2.5
O=C(O)C(C(C(=O)O)P(=O)(O)O)P(=O)(O)O (stereo not given)	-30.8

Would you be so kind as to report growth inhibition for each listed record?
1. O=C1NC(=S)N/C1=C\c1ccco1
2. CN(C)C=NCc1ccc2c(c1)OCO2
3. COc1ccc(C(C2=C(O)CC(C)OC2=O)C2=C(O)CC(C)OC2=O)cc1 (stereo not given)
4. CCOC(=O)CCCCN(CC)CCCCC(=O)OCC
5. CC(C)C1CCC(=O)CC1
6. O=C/C=C/N=c1ccn(O)cc1
7. CC(C)(C)N1CC(C(O)c2ccccc2)C1c1ccccc1 (stereo not given)

Reply |
10.2
-24
-5.4
-1.5
0.35
3.45
0.25
